The reported numbers originate from ChEMBL document CHEMBL3608275.

Let's look at some molecules and their measured residual activity.
target: Neuronal acetylcholine receptor; alpha3/beta4 (Rattus norvegicus) (UniProt P04757+P12392); assay: Antagonist activity at rat alpha3beta4 nAChR expressed in Xenopus laevis oocytes assessed as inhibition of acetylcholine-induced mean current response by measuring remaining current at 100 uM by two-electrode voltage clamp electrophysiology assay relative to control; values are per cent of control
Measurement label: residual activity (%)

>>> df
                                   molecule  measurement_label  reported
0  c1cncc(-c2cncc([C@H]3C[C@H]4CC[C@H]3N4)c2)c1 (racemic)  residual activity        14
1  COc1cc(-c2cncc([C@H]3C[C@H]4CC[C@H]3N4)c2)ccn1 (racemic)  residual activity       7.2
2  Clc1ccc(-c2cncc([C@H]3C[C@H]4CC[C@H]3N4)c2)cn1 (racemic)  residual activity        12
3  Fc1ccc(-c2cncc([C@H]3C[C@H]4CC[C@H]3N4)c2)cn1 (racemic)  residual activity        41
4  Nc1ccc(-c2cncc([C@H]3C[C@H]4CC[C@H]3N4)c2)cn1 (racemic)  residual activity       5.4
5  COc1ccc(-c2cncc([C@H]3C[C@H]4CC[C@H]3N4)c2)cn1 (racemic)  residual activity       8.4
6  Fc1cc(-c2cncc([C@H]3C[C@H]4CC[C@H]3N4)c2)ccn1 (racemic)  residual activity        18
7  Clc1cc(-c2cncc([C@H]3C[C@H]4CC[C@H]3N4)c2)ccn1 (racemic)  residual activity        10
8  Nc1cc(-c2cncc([C@H]3C[C@H]4CC[C@H]3N4)c2)ccn1 (racemic)  residual activity       4.2
9  c1cc(-c2cncc([C@H]3C[C@H]4CC[C@H]3N4)c2)ccn1 (racemic)  residual activity        11
